Recorded duplex formation entropy ΔS for the following sequences
assay: duplex formation entropy ΔS (Van't Hoff fit of HRM Tm); higher = smaller entropy loss on duplex formation; details: temperature for dG: 50 °C; NaCl: 500 mM (unadjusted); backbone: PO-PO (both strands phosphodiester DNA)
Write the answer as a number in cal/mol/K, unit excluded.

Past entries and their recorded results:
- residueSequence: "TTGAAAACCCATGTGC"
  duplex formation entropy ΔS, cal/mol/K: -177
- residueSequence: "CTACCAGCGGCGCCGTT"
  duplex formation entropy ΔS, cal/mol/K: -235
- residueSequence: "TTCGCGGTCTCCATTA"
  duplex formation entropy ΔS, cal/mol/K: -146
- residueSequence: "AGCACGGTGGTACAACA"
  duplex formation entropy ΔS, cal/mol/K: -181

# duplex formation entropy ΔS lookup, item ACTGTATCGCCCTA
-181

# duplex formation entropy ΔS lookup, item AGAGCGCCCTGCTGCC
-220

# duplex formation entropy ΔS lookup, item CACAGCGACATGTATGG
-218

# duplex formation entropy ΔS lookup, item GTGAGCAGAAGGGGTT
-180

# duplex formation entropy ΔS lookup, item CTAAACTGTTATAGCCGG
-219

# duplex formation entropy ΔS lookup, item AATGAGGAGTGAAATGG
-190

---

test: duplex melting temperature (HRM, EvaGreen); higher = more stable duplex; conditions: duplex concentration 1 µM; backbone: PO-PO (both strands phosphodiester DNA)
assayEndpoint: duplex melting temperature (°C)
Write the answer as a number in °C, unit excluded.

Past entries and their recorded results:
- residueSequence: "AATGTCGAACAGCAATT"
  duplex melting temperature, °C: 63.1
- residueSequence: "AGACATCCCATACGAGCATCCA"
  duplex melting temperature, °C: 74.7
- residueSequence: "GCTGAACTAACCACCA"
  duplex melting temperature, °C: 62.4
- residueSequence: "TGTCGCACCCTACTA"
  duplex melting temperature, °C: 62.8
- residueSequence: "AATGAGGAGTGAAATGG"
  duplex melting temperature, °C: 61.5

# next sequence below
# duplex melting temperature lookup, item TGCCATGTTGAAAACC
61.3

---

assay: duplex melting temperature (HRM, EvaGreen); higher = more stable duplex; settings: duplex concentration 10 µM; backbone: PS-PO (listed strand fully phosphorothioate, complement phosphodiester)
assayEndpoint: duplex melting temperature (°C)
Write the answer as a number in °C, unit excluded.

Past entries and their recorded results:
- residueSequence: "GGTGGCGTTCTT"
  duplex melting temperature [°C]: 58.3
- residueSequence: "CCGCTCAGAGTAGAGA"
  duplex melting temperature [°C]: 63.9
- residueSequence: "TACTTCCAACGTAGG"
  duplex melting temperature [°C]: 57.4
- residueSequence: "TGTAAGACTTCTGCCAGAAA"
  duplex melting temperature [°C]: 66.2
- residueSequence: "TTAACCTGCAATGGATC"
  duplex melting temperature [°C]: 61.4
- residueSequence: "GCGGTTGGTGGCCAAC"
  duplex melting temperature [°C]: 69.8

# duplex melting temperature lookup, item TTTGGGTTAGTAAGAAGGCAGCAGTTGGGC
76.7

---

assay: duplex melting temperature (HRM, EvaGreen); higher = more stable duplex; details: duplex concentration 7.5 µM; backbone: PS-PO (listed strand fully phosphorothioate, complement phosphodiester)
Recorded duplex melting temperature for the following sequences
Write the answer as a number in °C, unit excluded.

Past entries and their recorded results:
- residueSequence: "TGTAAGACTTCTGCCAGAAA"
  valueMeasured: 65.5
- residueSequence: "AACGAATGTCAGCAATT"
  valueMeasured: 61.6
- residueSequence: "CAAGCCTCGATTTTGT"
  valueMeasured: 60.2
- residueSequence: "TCTCGCGGTTCCATTA"
  valueMeasured: 63.2
- residueSequence: "CGGTGCTTTTGGTAGC"
  valueMeasured: 61.4

# duplex melting temperature lookup, item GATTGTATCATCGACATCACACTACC
68.8

# duplex melting temperature lookup, item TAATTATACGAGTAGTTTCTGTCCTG
65.9

# duplex melting temperature lookup, item CTACCAGCGGCGCCGTT
76

# duplex melting temperature lookup, item CCCAGGCCTCGGATTTA
68

# duplex melting temperature lookup, item TATTCTGCCAATGGAAC
59.5

# duplex melting temperature lookup, item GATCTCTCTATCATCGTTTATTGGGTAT
66.2

# duplex melting temperature lookup, item GAGCAGAAGGGGTTGT
64.4

---

assay: duplex melting temperature (HRM, EvaGreen); higher = more stable duplex; conditions: duplex concentration 7.5 µM; backbone: PS-PS (both strands fully phosphorothioate)
Recorded duplex melting temperature for the following sequences
Write the answer as a number in °C, unit excluded.

Past entries and their recorded results:
- residueSequence: "GTGAAACAATGCTGTAG"
  valueMeasured: 49.7
- residueSequence: "GAGGCAGCCGCGACCTG"
  valueMeasured: 69.8
- residueSequence: "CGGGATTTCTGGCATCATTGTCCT"
  valueMeasured: 64.4
- residueSequence: "GGTGGCGTTCTT"
  valueMeasured: 49.8
- residueSequence: "AGCACGGTGGTACAACA"
  valueMeasured: 57.1

# duplex melting temperature lookup, item GTGAGCAGAAGGGGTT
58.1

# duplex melting temperature lookup, item AATGTCGAACAGCAATT
54.2

# duplex melting temperature lookup, item CTGTAAGGCGATATGTT
52.3

# duplex melting temperature lookup, item GTGGTACAAATGCGACC
55.9

# duplex melting temperature lookup, item CTACCAGCGGCGCCGTT
70

# duplex melting temperature lookup, item TAGACGCGGCCTCTTTCC
66.5

---

assay: duplex formation enthalpy ΔH (Van't Hoff fit of HRM Tm); higher = less exothermic duplex formation; conditions: temperature for dG: 50 °C; NaCl: 500 mM (unadjusted); backbone: PS-PO (listed strand fully phosphorothioate, complement phosphodiester)
Tick Satisfied if duplex formation enthalpy ΔH is -70 kcal/mol or greater. Tick Not satisfied if duplex formation enthalpy ΔH is less than -70 kcal/mol.

Consider the worked cases shown below.
- residueSequence: "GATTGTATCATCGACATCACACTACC"
  answerLabel: "Not satisfied"
- residueSequence: "CGATTTTGTCAAGCCT"
  answerLabel: "Not satisfied"
- residueSequence: "ACGGGTCGTTCCGTG"
  answerLabel: "Satisfied"
- residueSequence: "TACTTCCAACGTAGG"
  answerLabel: "Satisfied"
- residueSequence: "TTAACCTGCAATGGATC"
  answerLabel: "Not satisfied"

Confirm if duplex formation enthalpy ΔH reported for the sequence TATTCTGCCAATGGAAC is -70 kcal/mol or above.
Not satisfied

Confirm if duplex formation enthalpy ΔH reported for the sequence GCAGGAGCCGCGACCTG is -70 kcal/mol or above.
Not satisfied

Confirm if duplex formation enthalpy ΔH reported for the sequence TTCGCGGTCTCCATTA is -70 kcal/mol or above.
Satisfied

Confirm if duplex formation enthalpy ΔH reported for the sequence AGAGCGCCCTGCTGCC is -70 kcal/mol or above.
Not satisfied

Confirm if duplex formation enthalpy ΔH reported for the sequence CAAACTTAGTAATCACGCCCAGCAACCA is -70 kcal/mol or above.
Not satisfied

Confirm if duplex formation enthalpy ΔH reported for the sequence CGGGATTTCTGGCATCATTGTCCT is -70 kcal/mol or above.
Not satisfied

Confirm if duplex formation enthalpy ΔH reported for the sequence TAGACGCGGCCTCTTTCC is -70 kcal/mol or above.
Not satisfied

Confirm if duplex formation enthalpy ΔH reported for the sequence GCCCGAGCATGACTGCG is -70 kcal/mol or above.
Not satisfied

Confirm if duplex formation enthalpy ΔH reported for the sequence AGGAGTGAATGAAATGG is -70 kcal/mol or above.
Not satisfied

---

experiment: duplex melting temperature (HRM, EvaGreen); higher = more stable duplex; conditions: duplex concentration 1 µM; backbone: PO-PO (both strands phosphodiester DNA)
assayEndpoint: duplex melting temperature (°C)
Write the answer as a number in °C, unit excluded.

Past entries and their recorded results:
- residueSequence: "CACAGCGACATGTATGG"
  uom: "°C"
  duplex melting temperature: 66.4
- residueSequence: "CTTTTGTGCGGGTAGC"
  uom: "°C"
  duplex melting temperature: 63.8
- residueSequence: "GAACTGCCACTACCAA"
  uom: "°C"
  duplex melting temperature: 63.2
- residueSequence: "TAGACGCGGCCTCTTTCC"
  uom: "°C"
  duplex melting temperature: 73.9
- residueSequence: "AACGAATGTCAGCAATT"
  uom: "°C"
  duplex melting temperature: 62.4

# duplex melting temperature lookup, item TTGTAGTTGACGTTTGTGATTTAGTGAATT
75.6

# duplex melting temperature lookup, item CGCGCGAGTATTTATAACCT
71.2

# duplex melting temperature lookup, item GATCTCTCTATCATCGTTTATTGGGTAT
73.1

---

assay: duplex formation enthalpy ΔH (Van't Hoff fit of HRM Tm); higher = less exothermic duplex formation; settings: temperature for dG: 50 °C; NaCl: 500 mM (unadjusted); backbone: PS-PS (both strands fully phosphorothioate)
Tick rule met if duplex formation enthalpy ΔH is -300 kJ/mol or greater. Tick rule not met if duplex formation enthalpy ΔH is less than -300 kJ/mol.

- residueSequence: "ACTCGCTCTACCTTAAT"
  answerLabel: "rule met"

Confirm if duplex formation enthalpy ΔH reported for the sequence TCTCGCGGTTCCATTA is -300 kJ/mol or above.
rule met

Confirm if duplex formation enthalpy ΔH reported for the sequence TGCCATGTTGAAAACC is -300 kJ/mol or above.
rule not met

Confirm if duplex formation enthalpy ΔH reported for the sequence GTCATTGTGCTTTTGC is -300 kJ/mol or above.
rule not met

Confirm if duplex formation enthalpy ΔH reported for the sequence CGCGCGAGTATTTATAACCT is -300 kJ/mol or above.
rule not met

Confirm if duplex formation enthalpy ΔH reported for the sequence AATGTCGAACAGCAATT is -300 kJ/mol or above.
rule met

Confirm if duplex formation enthalpy ΔH reported for the sequence AGAGCGCCCTGCTGCC is -300 kJ/mol or above.
rule not met

Confirm if duplex formation enthalpy ΔH reported for the sequence GAACTGCCACTACCAA is -300 kJ/mol or above.
rule met

Confirm if duplex formation enthalpy ΔH reported for the sequence TAGACGCGGCCTCTTTCC is -300 kJ/mol or above.
rule not met
